System: SR leukemia
Test: NCI tumour cell line growth inhibition, 48 h

[
  {
    "compound": "COc1ccc(C#CC2=C(c3cc(OC)c(OC)c(OC)c3)C(=O)OC2)cc1",
    "measured.on": "SR leukemia",
    "TGI": "> 50 µM"
  },
  {
    "compound": "Nc1cc2nc3ccccc3oc-2cc1=O",
    "measured.on": "SR leukemia",
    "TGI": "> 75.3 µM"
  },
  {
    "compound": "S=C(c1c[nH]c2ccccc12)N1CCCCC1",
    "measured.on": "SR leukemia",
    "TGI": "> 100 µM"
  },
  {
    "compound": "O=C(CC1C(=O)Nc2ccccc2S1(=O)=O)Nc1cccc(Cl)c1 (stereo not drawn)",
    "measured.on": "SR leukemia",
    "TGI": "40.7 µM"
  },
  {
    "compound": "Cc1cc2c(=O)[nH]c(N)nc2nc1C",
    "measured.on": "SR leukemia",
    "TGI": "> 100 µM"
  },
  {
    "compound": "CN1C(=O)C(=CN(C)c2ccccc2)C(=O)N(C)C1=O",
    "measured.on": "SR leukemia",
    "TGI": "> 100 µM"
  },
  {
    "compound": "Cn1c(=O)c2nc(NCCO)cnc2n(C)c1=O",
    "measured.on": "SR leukemia",
    "TGI": "> 100 µM"
  },
  {
    "compound": "Cc1cccc(C(=O)O)c1CC1NCCC2c3ccccc3NC12 (stereo not drawn)",
    "measured.on": "SR leukemia",
    "TGI": "> 100 µM"
  },
  {
    "compound": "Cc1cc2c(C(C)C)c(O)c(O)c(C=Nc3ccccc3)c2c(O)c1-c1c(C)cc2c(C(C)C)c(O)c(O)c(C=Nc3ccccc3)c2c1O",
    "measured.on": "SR leukemia",
    "TGI": "> 100 µM"
  },
  {
    "compound": "CN(C)c1ccc(/C=N/NC(=O)c2cccc3ccccc23)c(Cl)c1",
    "measured.on": "SR leukemia",
    "TGI": "> 100 µM"
  },
  {
    "compound": "CC(C)(O)CCc1ccc(O)c2c(=O)c3c(O)c4c(cc3oc12)O[C@H]1OC=C[C@@]41O",
    "measured.on": "SR leukemia",
    "TGI": "> 100 µM"
  },
  {
    "compound": "COCn1c(C)c(C)c2c(=O)oc(C)nc21",
    "measured.on": "SR leukemia",
    "TGI": "> 100 µM"
  },
  {
    "compound": "COc1cc(Nc2nc3ccccc3nc2C(C)C)cc(OC)c1OC",
    "measured.on": "SR leukemia",
    "TGI": "> 100 µM"
  },
  {
    "compound": "O=C1C2CC=CCC2C(=O)N1n1c(Cc2ccccc2)n[nH]c1=O (stereo not drawn)",
    "measured.on": "SR leukemia",
    "TGI": "> 100 µM"
  },
  {
    "compound": "CCCCN1CCN(c2ccc3nc(-c4ccc5nc(-c6ccc(OCC)c(OCC)c6)[nH]c5c4)[nH]c3c2)CC1",
    "measured.on": "SR leukemia",
    "TGI": "1.19 µM"
  },
  {
    "compound": "CC(=O)c1ccccc1NS(=O)(=O)c1ccc2nc(C)n(NS(=O)(=O)c3ccccc3C(C)=O)c(=O)c2c1",
    "measured.on": "SR leukemia",
    "TGI": "> 100 µM"
  },
  {
    "compound": "CN1CCN(c2ccc(C(=O)Nc3cccc(C#Cc4cccc5[nH]nc(N)c45)c3)cc2C(F)(F)F)CC1",
    "measured.on": "SR leukemia",
    "TGI": "5.34 µM"
  },
  {
    "compound": "CC(=O)OC1[C@H](n2ccnc2)C[C@H]2[C@@H]3CC=C4CC(N5CCCC5)CC[C@]4(C)[C@H]3CC[C@]12C (stereo partly drawn)",
    "measured.on": "SR leukemia",
    "TGI": "35.2 µM"
  }
]

Measured values drawn from PubChem BioAssay (NCI) for this set.
